Origin of the recorded values: PubChem BioAssay AID1159580

normalized growth values, listed per item
# Procedure Summary: chemical genetic growth profiling, strain panel (AID 1159580);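 note: tested at 20 µM; growth read once vehicle control cultures reached saturation at 30 °C; 1 = growth at the plate median or of vehicle wells; lower values mean less growth of the strain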
# Measurement Context: S. cerevisiae deletion strains, growth OD, locus YLL026W, hits give low values
The campaign covered roughly 5,500 compounds. About 2,000 (36%) were called active. Inconclusive results (about 18%) are left out. This is one part of the list.

>  <Molecule>
COc1ccc(-c2coc3cc(O)ccc3c2=O)c(OC)c1O

>  <normalized growth>
0.991

$$$$
>  <Molecule>
Oc1cc(O)c2c(c1)O[C@H](c1ccc(O)c(O)c1)[C@H](O)C2

>  <normalized growth>
1.01

$$$$
>  <Molecule>
C=C[C@@](C)(O)CCC1C(=C)CCC2[C@@](C)(CO)CCC[C@]12C (stereo partly specified)

>  <normalized growth>
1.03

$$$$
>  <Molecule>
CNC(=O)O/N=C(\C)SC

>  <normalized growth>
1

$$$$
>  <Molecule>
CC[C@@]1(O)C[C@H](O[C@H]2C[C@H](N(C)C)[C@H](O)[C@H](C)O2)c2c(cc3c(c2O)C(=O)c2c(O)cccc2C3=O)[C@H]1C(=O)OC

>  <normalized growth>
0.908

$$$$
>  <Molecule>
CCN(CC)Cc1ccc(Nc2ccnc3cc(Cl)ccc23)cc1O

>  <normalized growth>
1.02

$$$$

* * *

# Procedure Summary: chemical genetic growth profiling, strain panel (AID 1159580);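 note: tested at 20 µM; growth read once vehicle control cultures reached saturation at 30 °C; 1 = growth at the plate median or of vehicle wells; lower values mean less growth of the strain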
# Measurement Context: S. cerevisiae deletion strains, growth OD, locus YOR083W, strain WHI5, hits give low values
Out of some 5,500 compounds screened, about 2,000 (36%) were called active. Not shown: some 18% with an inconclusive outcome. The list shows a part of the results.

>  <Compound>
CC(=O)S[C@@H]1CC2=CC(=O)CC[C@]2(C)[C@H]2CC[C@@]3(C)[C@@H](CC[C@@]34CCC(=O)O4)C12 (some centres undefined)

>  <normalized growth>
1

$$$$
>  <Compound>
CO/N=C1/CN(c2nc3c(cc2F)c(=O)c(C(=O)O)cn3C2CC2)CC1CN (centres undefined)

>  <normalized growth>
0.987

$$$$
>  <Compound>
CN1C2C[C@H](OC(=O)[C@H](CO)c3ccccc3)C[C@H]1[C@@H](O)C2

>  <normalized growth>
1.01

$$$$
>  <Compound>
CN1C2CCC1CC(OC(c1ccccc1)c1ccccc1N)C2 (centres undefined)

>  <normalized growth>
1

$$$$
>  <Compound>
Cc1ncc(CNC(=O)N(CCCl)N=O)c(N)n1

>  <normalized growth>
0.979

$$$$
>  <Compound>
Clc1ccc(C(OCCN2CCCCC2)c2ccccc2)cc1 (centres undefined)

>  <normalized growth>
1.02

$$$$
>  <Compound>
Oc1cc(O)c2c(c1)O[C@H](c1ccc(O)c(O)c1)[C@@H](O)C2

>  <normalized growth>
1.02

$$$$
>  <Compound>
CCn1cc(C(=O)O)c(=O)c2cc(F)c(N3CCNCC3)nc21

>  <normalized growth>
0.99

$$$$
>  <Compound>
CN(C)CCCC1(c2ccc(F)cc2)OCc2cc(C#N)ccc21 (centres undefined)

>  <normalized growth>
0.999

$$$$

* * *

normalized growth values, listed per item
# Procedure Summary: chemical genetic growth profiling, strain panel (AID 1159580);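 note: tested at 20 µM; growth read once vehicle control cultures reached saturation at 30 °C; 1 = growth at the plate median or of vehicle wells; lower values mean less growth of the strain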
# Measurement Context: S. cerevisiae deletion strains, growth OD, locus YDR137W, strain rgp1, hits give low values
About 2,000 (36%) of roughly 5,500 compounds were called active. About 18% were inconclusive and are not listed. This is one part of the list.

>  <Compound>
O=C1NCC2(CCN(CCc3ccccc3)CC2)O1

>  <normalized growth>
0.989

$$$$
>  <Compound>
CC#CC1(O)CCC2C3CCC4=CC(=O)CCC4=C3C(c3ccc(N(C)C)cc3)CC21C (stereo not drawn)

>  <normalized growth>
1.01

$$$$
>  <Compound>
COc1ccc(C2CNC(=O)C2)cc1OC1CCCC1 (stereo not drawn)

>  <normalized growth>
1.02

$$$$
>  <Compound>
C=CC[C@]1(O)CCC2C3CCC4=CC(=O)CCC4=C3C=C[C@@]21C (stereo partly drawn)

>  <normalized growth>
0.806

$$$$
>  <Compound>
O=C(Oc1cc(O)cc2c1C[C@@H](OC(=O)c1cc(O)c(O)c(O)c1)[C@@H](c1cc(O)c(O)c(O)c1)O2)c1cc(O)c(O)c(O)c1

>  <normalized growth>
0.99

$$$$
>  <Compound>
C#CCN(C)Cc1ccccc1

>  <normalized growth>
0.98

$$$$
>  <Compound>
Cc1[nH]c2ccccc2c1CN(C)C

>  <normalized growth>
1.03

$$$$
>  <Compound>
CCC[C@H](N[C@@H](C)C(=O)N1[C@H](C(=O)O)C[C@@H]2CCCC[C@@H]21)C(=O)OCC

>  <normalized growth>
0.99

$$$$
>  <Compound>
CC(C)NCC(O)COc1cccc2[nH]ccc12 (stereo not drawn)

>  <normalized growth>
0.975

$$$$
>  <Compound>
c1ccc2c(c1)CCCC2C1=NCCN1 (stereo not drawn)

>  <normalized growth>
1.03

$$$$
>  <Compound>
CC[C@@]1(O)C[C@H](O[C@H]2C[C@H](N(C)C)[C@H](O)[C@H](C)O2)c2c(cc3c(c2O)C(=O)c2c(O)cccc2C3=O)[C@H]1C(=O)OC

>  <normalized growth>
0.631

$$$$
>  <Compound>
C/C=C(\C)C(=O)O[C@H]1C[C@@H](OC(C)=O)[C@@]2(C(=O)OC)CO[C@@H]3C2[C@]12CO[C@](O)(C(=O)OC)[C@H]2[C@](C)(C12O[C@@]1(C)[C@H]1C[C@@H]2OC2OC=C[C@@]21O)[C@@H]3O (stereo partly drawn)

>  <normalized growth>
0.984

$$$$
>  <Compound>
O=C(NC(=O)c1ccccc1Cl)Nc1ccc(OC(F)(F)F)cc1

>  <normalized growth>
1.06

$$$$
